Source listed as PubChem BioAssay AID2018.

# assayed_target: SUMO-conjugating enzyme UBC9 (Homo sapiens)
# assay: blockers of UBC9-mediated SUMO conjugation – biochemical, AlphaScreen, SUMOylation inhibitor project, confirmation (AID 2018)
# measurement_parameters: AlphaScreen in vitro SUMOylation assay; at 35 µM
Out of some 1,200 compounds screened, about 600 (50%) were called active. Rule as the data show it: active = inhibition above about 42%; inactive = the rest. The set was probably picked from earlier hits. This is one part of the list. Potency and affinity values are given separately.
Parameter call: string, one of active, inactive

What outcome does the record of this test show for O=C(NCc1ccco1)Nc1ccc2snnc2c1 ?
inactive

Status in this test for O=c1c2ccccc2nc(/C=C/c2cccnc2)n1Cc1ccccc1 ?
active

What is the recorded call for this compound in the test? COCCn1c(-c2cccs2)csc1=Nc1cccnc1
inactive

Assay result, entry Cc1c2c(=O)n(-c3nc4ccccc4s3)nc-2cc(O)n1Cc1ccccc1 — outcome?
inactive

What was the test verdict on COC(=O)c1c(C)oc(C)c1S(=O)(=O)NC(C)(C)C ?
inactive

Status in this test for Cc1ccc(/C=C(\C#N)C(=O)Nc2cccc3ncccc23)o1 ?
inactive

# fetch the recorded call for O=C(O)c1cc(Cl)c(Cl)cc1C(=O)Nc1cccc2ncccc12 here
inactive

What outcome does the record of this test show for COc1ccc2nc(-c3ccco3)c(-c3ccco3)nc2c1 ?
active

Please share the test call associated with COCCNC(=O)Nc1ccc2nc(-c3ccco3)c(-c3ccco3)nc2c1 .
active

Per the assay record, what outcome was assigned to O=C(NC(=S)Nc1cccc2c(O)cccc12)c1ccco1 ?
inactive

Kindly provide the recorded test outcome for the following compound: O=C(Cc1cccc2ccccc12)NN1C(=O)/C(=C\c2cccnc2)SC1=S
inactive

Would you mind telling me which call this test gave CCN1C(=O)c2cccc3c(N)ccc1c23 ?
active

* * *

# assayed_target: SUMO-conjugating enzyme UBC9 (Homo sapiens) (UniProt P63279)
# Sequence (P63279 whole entry, looked up): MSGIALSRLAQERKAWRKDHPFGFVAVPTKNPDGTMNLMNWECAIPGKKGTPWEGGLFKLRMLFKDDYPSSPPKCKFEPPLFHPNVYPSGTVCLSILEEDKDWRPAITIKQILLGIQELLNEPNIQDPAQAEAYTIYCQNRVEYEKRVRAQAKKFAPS
# assay: blockers of UBC9-mediated SUMO conjugation – biochemical, AlphaScreen, SUMOylation inhibitor project, confirmation (AID 2018)
# measurement_parameters: AlphaScreen in vitro SUMOylation assay; at 35 µM; active compounds read high
The whole screen tested about 1,200 compounds, of which about 600 (50%) were called active. So high a share suggests a set chosen from earlier hits. This is one part of the list. Entries with a potency or affinity are not part of this list.
measured_attribute: inhibition (%)
Write the value in % as a bare number.

So what does the record say about inhibition for O=C(CSc1ccc(Br)c2cccc(Cl)c12)Nc1ccc(S(=O)(=O)Nc2nccs2)cc1 ?
101

I would be grateful if you could share the reported inhibition for CCN(CC)C(=O)C1CCCN(C(=O)Nc2ccc3nsnc3c2)C1 (centres undefined) .
-9

GET /values?readout=inhibition&item= Cc1ccc(/C=c2\sc3nc(-c4ccco4)nn3c2=O)o1
83.3

Requested read-out: inhibition. Entry: CC(C)Cn1c(N)c(C(=O)NCc2cccs2)c2nc3ccccc3nc21
-100

Report inhibition for Cc1cc(/C=C2\SC(=S)NC2=O)c(C)[nH]1 please.
65.4

Can you share its inhibition? I mean this compound: NN1C(=O)/C(=C\c2ccco2)SC1=S
56

Reported inhibition, compound CC(C)(C)c1cc(=O)n(-c2ccccc2)[nH]1 : ____
22.8

Which inhibition reading was recorded for the compound O=C(NCCNc1ccc2ccccc2c1)c1cccn2c(=O)c3sccc3nc12 ?
23.7

# inhibition lookup, item O=C1C2C3C=CC(C3)C2C(=O)N1CNc1ccc(O)cc1 (centres undefined)
92.9

Bench note: what inhibition did O=[N+]([O-])c1ccc(C=Nc2ccc(Cl)c([N+](=O)[O-])c2)s1 show?
98.4

Could you tell me which inhibition is on file for CCCCNC(=O)Oc1c(Br)cc2sc(=O)oc2c1Br ?
88.3

What value of inhibition has been reported for the following compound? COc1ccc2c(c1)Cc1sc(NC(C)=O)nc1-2
41.3

Looking for the measured inhibition of COc1ccc2c(c1)Cc1sc(NC(=O)c3ccccc3)nc1-2 , can you help?
34.5

# input compound: C(=N\C(/N=C/c1ccco1)c1ccco1)/c1ccco1 ; wanted: its inhibition
30

Please give the measured inhibition for this compound: CC(=O)C1=C(O)C=C(c2ccco2)CC1c1ccco1 (centres undefined)
28.1

Please look up its inhibition: C[n+]1cccc2c(Br)ccc([O-])c21
102

Reported inhibition for Cc1cc(N2C(=O)c3ccc(C(=O)Nc4ccc(O)cc4C(=O)O)cc3C2=O)no1 : what is it?
39.8

Could you tell me which inhibition is on file for O=C(Nc1ccc(Cl)c(Cl)c1)Nn1cnnc1 ?
-10.6

inhibition lookup needed for Cn1c2ccc(Cl)cc2c2nc3ccccc3nc21 , thanks.
4.7

Recorded inhibition for COc1ccc(C(=O)Nc2nc3c(s2)Cc2cc(OC)ccc2-3)cc1 , please?
59.7

Dear colleague, I am looking for the recorded inhibition of the following compound: Cc1ccc(-n2nc(C)c3c2OC(N)=C(C#N)C3c2ccoc2)cc1 (centres undefined)
69

What does the record list as inhibition for COc1ccc(S(=O)(=O)Nc2ccc(O)c3ccccc23)cc1 ?
48.3

Sample Cc1ccc(-n2nc(C)c3c2OC(N)=C(C#N)C3c2ccc(C)o2)cc1 (centres undefined) — what was its inhibition?
81.4

// lookup inhibition for O=C(NCCc1csc(-c2ccccc2)n1)c1c(F)cccc1Cl
-8.6
